Test system: MALME-3M melanoma
METHOD: NCI-60 one-dose screen, 48 h (100 = growth as untreated, 0 = no growth, -100 = all killed)
CONDITION CONTEXT: 10 µM unless noted
This is part of a sample that, as a whole, favours compounds with a hit. Of some 83,000 tested, about 20% had one in any assay.
QUANTITY NAME: growth (%)
Give bare numbers, in %.

Please review the entries below; each comes with its answer.
Endpoint output: growth of Cc1ccc(C2CC(c3ccc(NC(=O)Nc4ccccc4)cc3)=NN2c2ccc(S(C)(=O)=O)cc2)cc1 (stereo not given) . Value?
-25.1

Endpoint output: growth of COc1ccc(NC(=O)NN2C(=O)c3ccccc3N(C)C2c2ccc(OC)cc2)cc1 (stereo not given) . Value?
95

Endpoint output: growth of "COc1ccc(N=Nc2c(N)nn3c(-c4ccc([N+](=O)[O-])cc4)ccnc23)cc1" . Value?
93

# per-item lookup of growth; items listed below
1. CCC(=O)c1c2c(c3ccc4c5ccccc5ccc4n13)C(=O)c1ccccc1C2=O
2. O=C(Cn1c(/C=C/c2ccc([N+](=O)[O-])cc2)nc2ccccc2c1=O)Nc1ccccc1
3. Cc1nc(N)ncc1-c1ccc2ncnc(N3CCc4cc(F)c(Cl)cc43)c2c1
4. FC(F)(F)c1cc2c(Cl)ncnc2n1CCN1CCCCC1
5. COc1ccc(C(=O)c2c(N)c(C#N)cn2-c2ccc([N+](=O)[O-])cc2)cc1
6. O=C(N/N=C/c1occc1Br)c1[nH]c2ccc(Br)cc2c1-c1ccccc1
7. COc1ccccc1Nc1nnc(-c2c[nH]c3ccccc23)o1

1. -87.5
2. 85
3. 91.9
4. 86.9
5. 102
6. -94.9
7. 44.1

Source of measurements: PubChem BioAssay (NCI)
